assay: Test Example 2: presence of prodrug in mouse and absorbency, caudal vein administration, plasma AUC; type: in vivo, mice (Balb/cA, male); settings: male, Balb/cA, iv; caudal vein, 12 mg/kg, physiological saline, mouse plasma, unchanged prodrug; read-out: AUC 0-6 hr in terms of the administered Example compound
Where a name gives a salt, the structure may show the parent alone.
Catalogue of compounds with associated AUC(0-t)

Nc1ncnc2c1c(I)cn2[C@@H]1O[C@H](COP(=O)(O)O)[C@@H](O)[C@@H]1F [Disodium salt of Example 2] | 0.64 µM·h
Nc1ncnc2c1c(I)cn2[C@@H]1O[C@H](COP(O)(O)=S)[C@@H](O)[C@@H]1F [Disodium salt of Example 3] | 0.18 µM·h

Next, consider the following compound.
Looking up Nc1ncnc2c1c(I)cn2[C@@H]1O[C@H](CO)C(OP(=O)(O)O)C1F (stereo partly drawn) [Disodium salt of Example 4] , I found its AUC(0-t) recorded as 9.35 µM·h
